Ref: patent US4584404A

Each entry below carries its reported Concentration that blocks 50% of dopamine uptake.
Tested on: dopamine uptake (synaptosomes from rat brain)
Test: blockade of dopamine uptake by synaptosomes from rat brain, in vitro, radioactive labelled compounds
Assay type: biochemical
Conditions: dopamine 0.2 μM
Text: This blockade is shown both in vitro with radioactive labelled compounds to determine the amount of monoamine uptake by synaptosomes from rat brain, and in vivo by a variety of methods. Among the physiologically active monoamines whose uptake is blocked by the compounds of this invention are included particularly serotonin (5HT) and norepinephrine(3,4-dihydroxyphenylethanolamine). […]
Outcome Measure: Concentration that blocks 50% of dopamine uptake (µg/mL)

compound="CN(C)CCC(Oc1ccc(Cl)cc1)c1ccccc1 (stereo not shown) [p-chlorophenoxy]" unit_abbreviation=µg/mL value_comparator== endpoint_value=1.3
compound="Cc1ccc(OC(CCN(C)C)c2ccccc2)cc1 (stereo not shown) [p-tolyloxy]" unit_abbreviation=µg/mL value_comparator=> endpoint_value=100
compound="CN(C)CCC(Oc1ccc(C(F)(F)F)cc1)c1ccccc1 (stereo not shown) [p-trifluoromethylphenyloxy]" unit_abbreviation=µg/mL value_comparator=> endpoint_value=100
compound="Cc1ccccc1OC(CCN(C)C)c1ccccc1 (stereo not shown) [o-tolyloxy]" unit_abbreviation=µg/mL value_comparator== endpoint_value=0.8
